molecular target: thrombin binding to immobilized γA/γA-fibrin (Homo sapiens, UniProt P00734); experiment: SPR: effect of active site inhibitors on thrombin binding to immobilized γA/γA-fibrin; settings: 0–5000 nM inhibitor, 250–500 nM thrombin, Req vs inhibitor concentration
metric-name: pEC50
Numbers only, as −log10 of the molar value.

Entry under test: CCC1CCN(C(=O)C(CCCN=C(N)N)NS(=O)(=O)c2cccc3c(N(C)C)cccc23)CC1 (stereo not shown) [DAPA] . Its pEC50 was 6.29

---

target: 125I-thrombin binding to γA/γA-fibrin clots (Homo sapiens, UniProt P00734); test: 125I-thrombin binding to γA/γA-fibrin clots; settings: EC50 converted by Cheng-Prusoff with Kd of 125I-thrombin for fibrin; 10 nM 125I-thrombin, 3 μM γA/γA-fibrinogen
metric-name: pKi
Numbers only, as −log10 of the molar value.

Entry under test: CCC1CCN(C(=O)C(CCCN=C(N)N)NS(=O)(=O)c2cccc3c(N(C)C)cccc23)CC1 (stereo not shown) . Its pKi was 8.68

---

biological target: thrombin binding to GpIbα269-286ppp (Homo sapiens); assay: SPR: effect of active site inhibitors on thrombin binding to immobilized GpIbα269-286ppp; details: 0–5000 nM inhibitor, 250 nM thrombin
metric-name: EC50 (µM)
One number for each entry, in µM.

# EC50 measured on thrombin binding to GpIbα269-286ppp (Homo sapiens) for item CCC1CCN(C(=O)C(CCCN=C(N)N)NS(=O)(=O)c2cccc3c(N(C)C)cccc23)CC1 (stereo not shown) = 1.29

---

target: thrombin binding to immobilized γA/γ′-fibrin (Homo sapiens); assay: SPR: effect of active site inhibitors on thrombin binding to immobilized γA/γ′-fibrin; settings: 0–5000 nM inhibitor, 250–500 nM thrombin
metric-name: EC50 (nM)
Numbers only, in nM.

Entry under test: CCC1CCN(C(=O)C(CCCN=C(N)N)NS(=O)(=O)c2cccc3c(N(C)C)cccc23)CC1 (stereo not shown) [DAPA] . Its EC50 was 516

---

target: UniProt:P00734; assay: SPR: effect of active site inhibitors on thrombin binding to immobilized factor Va; settings: 0–5000 nM inhibitor, 250–500 nM thrombin
metric-name: EC50 (nM)
One number for each entry, in nM.

Entry under test: CCC1CCN(C(=O)C(CCCN=C(N)N)NS(=O)(=O)c2cccc3c(N(C)C)cccc23)CC1 (stereo not shown) . Its EC50 was 565

---

molecular target: 125I-thrombin binding to γA/γ′-fibrin clots (Homo sapiens); assay: 125I-thrombin binding to γA/γ′-fibrin clots; details: EC50 converted by Cheng-Prusoff with Kd of 125I-thrombin for fibrin; 10 nM 125I-thrombin, 1 μM γA/γ′-fibrinogen
metric-name: Ki (µM)
Give bare numbers, in µM.

Entry under test: CCC1CCN(C(=O)C(CCCN=C(N)N)NS(=O)(=O)c2cccc3c(N(C)C)cccc23)CC1 (stereo not shown) . Its Ki was 0.0196
